Tested on: Abutilon theophrasti
experiment: Pre-emergence herbicidal activity, ABUTH; note: key: 5=total damage to plant; 0=no damage to plant
Format: in vivo
condition notes: Application pre-emergence, 1000 g/Ha, evaluated after 13 days, scale 0-5
In this section we review reported ABUTH damage score values for a set of compounds.
Answer with a bare number; do not write a unit.

Worked set:
| compound | ABUTH damage score |
| --- | --- |
| COc1cc(-c2cnc(N3C(=O)N(C)CC3O)cc2C(F)(F)F)ccn1 (stereo not drawn) | 5 |
| COc1ccc(-c2cnc(N3C(=O)N(C)CC3O)cc2C(F)(F)F)c(OC)c1 (stereo not drawn) | 3 |
| COCCOCc1cnc(N2C(=O)N(C)CC2O)cc1C(F)(F)F (stereo not drawn) | 5 |

stdin: Find the measured ABUTH damage score of CN1CC(O)N(c2cc(C(F)(F)F)c(Cl)cn2)C1=O (stereo not drawn) and report it.
stdout: 5

stdin: Find the measured ABUTH damage score of CC(=O)Nc1ccccc1-c1cnc(N2C(=O)N(C)CC2O)cc1C(F)(F)F (stereo not drawn) and report it.
stdout: 2

stdin: Find the measured ABUTH damage score of CN1CC(O)N(c2cc(C(F)(F)F)c(-c3ccc(Cl)nc3)cn2)C1=O (stereo not drawn) and report it.
stdout: 5

stdin: Find the measured ABUTH damage score of CN1CC(O)N(c2cc(C(F)(F)F)c(-c3ccccc3)cn2)C1=O (stereo not drawn) and report it.
stdout: 5

stdin: Find the measured ABUTH damage score of CN1CC(O)N(c2cc(C(F)(F)F)c(-c3ccc(F)cc3)cn2)C1=O (stereo not drawn) and report it.
stdout: 4
